tgt: T1, Human CD98 ECD with C-terminal His-tag (human, UniProt P08195 105-529)
T1 construct: The entry includes the linker and the polyhistidine tag; also called huCD98 ECD
T1 sequence: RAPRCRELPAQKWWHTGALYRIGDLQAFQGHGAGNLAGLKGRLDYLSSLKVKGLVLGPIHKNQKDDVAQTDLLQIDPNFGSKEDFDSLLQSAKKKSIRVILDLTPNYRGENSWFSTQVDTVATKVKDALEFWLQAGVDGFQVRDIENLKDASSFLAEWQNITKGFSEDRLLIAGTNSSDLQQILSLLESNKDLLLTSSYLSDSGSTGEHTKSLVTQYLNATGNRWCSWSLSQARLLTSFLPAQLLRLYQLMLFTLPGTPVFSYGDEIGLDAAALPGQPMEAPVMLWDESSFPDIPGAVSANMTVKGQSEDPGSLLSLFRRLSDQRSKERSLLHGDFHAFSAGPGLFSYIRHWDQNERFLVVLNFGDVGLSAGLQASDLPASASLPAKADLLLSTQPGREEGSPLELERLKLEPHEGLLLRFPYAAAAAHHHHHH
experiment_notes: SPR (Biacore), antibody captured on anti-Fc surface, CD98 ECD in solution
result_type: Kd (nM)
The figure you give is taken to be in nM; do not add the unit.

Query: Quick one: Kd for huAb15v5 (antibody, V domains shown, Humanized, further engineered clone of chAb15, converted to IgG and expressed as a full-length antibody) VH: EVQLVESGGGVVQPGRSLRLSCAASGFTFSDYTMAWVRQAPGKGLEWVATIIYTGRGTYYRDAVKGRFTISRDNSKSTLYLQMNSLRAEDTAVYYCARQSDDTYYYWGYFDYWGQGTMVTVSS VL: DIVMTQSPDSLAVSLGERATINCKSSQSLLFSGNQKNYLAWYQQKPGQSPKLLIYWASTRQSGVPDRFSGSGSGTDFTLTIRSLQAEDVAIYYCQQYYSSPYTFGQGTKLEIK ?
Response: 3.1
